Experiment: Cytotoxicity against human MCF7/ADR cells after 6 days by MTT assay
Assay type: functional, cell-based
Assay Setup: NCI/ADR-RES, 144 h

| Smiles Repr | IC50 |
| --- | --- |
| COc1cc(O)c2c(c1)[C@H](O)[C@H]1C[C@](C)(O)[C@H](OC(C)=O)C[C@@H]1C2=O | > 100 µM |
| COc1cc(O)c2c(c1)[C@H](O)[C@@H]1[C@H](C[C@@H](O)[C@@](C)(O)[C@@H]1O)C2=O | > 100 µM |
| COc1cc(O)c2c(c1)C(=O)c1cc(C)c(O)c(-c3c(OC)cc4c(c3O)C(=O)C3=C(C4=O)[C@@H](O)[C@](C)(O)[C@H](O)[C@H]3O)c1C2=O | 98 µM |
